- Study System: HER2 INS YVMA (Homo sapiens, UniProt P04626, INS775YVMA)
- Sequence (P04626 with tags, fused parts or gaps INS775YVMA): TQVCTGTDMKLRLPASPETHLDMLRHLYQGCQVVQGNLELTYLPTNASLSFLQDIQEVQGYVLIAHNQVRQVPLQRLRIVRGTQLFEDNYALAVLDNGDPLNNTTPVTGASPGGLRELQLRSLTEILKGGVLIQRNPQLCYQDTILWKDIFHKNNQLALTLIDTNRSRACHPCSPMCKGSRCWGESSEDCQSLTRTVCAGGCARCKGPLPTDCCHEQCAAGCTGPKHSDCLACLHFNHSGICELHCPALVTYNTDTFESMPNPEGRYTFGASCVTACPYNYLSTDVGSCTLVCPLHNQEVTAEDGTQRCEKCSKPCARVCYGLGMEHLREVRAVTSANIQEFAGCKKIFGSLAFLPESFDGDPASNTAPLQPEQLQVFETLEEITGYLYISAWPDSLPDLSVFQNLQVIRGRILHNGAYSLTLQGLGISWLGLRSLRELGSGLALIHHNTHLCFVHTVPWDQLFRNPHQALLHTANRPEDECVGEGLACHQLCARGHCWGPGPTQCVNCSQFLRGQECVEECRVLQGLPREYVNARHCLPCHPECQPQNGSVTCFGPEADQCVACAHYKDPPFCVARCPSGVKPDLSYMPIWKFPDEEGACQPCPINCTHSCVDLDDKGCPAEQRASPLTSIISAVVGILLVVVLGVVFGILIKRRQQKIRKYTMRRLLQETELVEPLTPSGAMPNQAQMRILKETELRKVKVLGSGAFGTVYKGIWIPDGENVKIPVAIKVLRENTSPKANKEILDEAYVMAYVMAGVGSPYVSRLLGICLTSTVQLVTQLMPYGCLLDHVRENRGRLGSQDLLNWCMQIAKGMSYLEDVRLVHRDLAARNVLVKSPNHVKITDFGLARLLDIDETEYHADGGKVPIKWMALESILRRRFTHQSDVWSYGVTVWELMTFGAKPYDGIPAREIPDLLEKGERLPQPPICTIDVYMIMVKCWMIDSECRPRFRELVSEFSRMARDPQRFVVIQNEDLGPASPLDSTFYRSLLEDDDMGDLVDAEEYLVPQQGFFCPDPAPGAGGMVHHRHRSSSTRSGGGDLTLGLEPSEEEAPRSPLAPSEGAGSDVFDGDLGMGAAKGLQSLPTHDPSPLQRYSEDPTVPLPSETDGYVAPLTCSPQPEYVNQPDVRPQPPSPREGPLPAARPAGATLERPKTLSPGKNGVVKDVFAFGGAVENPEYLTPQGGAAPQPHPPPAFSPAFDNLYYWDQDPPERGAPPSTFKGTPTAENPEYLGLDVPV
- Test: Lance Kinase Activity Assay, Her2 Exon 20 InsYVMA
- Test Conditions: biochemical Lance assay
pIC50: −log10 of the molar value.
Measure Name: pIC50

// worked examples, pIC50 included
- Compound: "C=CC(=O)Nc1cc(-c2c(-c3cnn(C4COC4)c3)[nH]c3ncc(C(=O)OC(C)C)c(C)c23)ccc1C"
  Meas Value: "≥ 7.30"
- Compound: "C=CC(=O)Nc1cc(-c2c(-c3cnn(CCOC)c3)[nH]c3ncc(C(=O)OC(C)C)c(C)c23)ccc1C"
  Meas Value: "≥ 7.30"
- Compound: "C=CC(=O)Nc1cc(-c2c(-c3cnn(C)c3)[nH]c3ncc(O[C@@H](C)CC)cc23)ccc1C [Example 12, 2,2,2-trifluoroacetate]"
  Meas Value: "≥ 7.30"
- Compound: "C=CC(=O)Nc1cc(-c2c(-c3cn(C)cn3)[nH]c3ncc(C(=O)OC(C)C)c(C)c23)ccc1C"
  Meas Value: "6.30 to 7.00"
- Compound: "C=CC(=O)Nc1cc(-c2c(-c3cnn(C)c3)[nH]c3ncc(-c4cnn(C)c4)cc23)ccc1C [Example 26, 2,2,2-trifluoroacetate]"
  Meas Value: "6.30 to 7.00"

Request: Provide value of pIC50 for this record tested with HER2 INS YVMA (Homo sapiens, UniProt P04626, INS775YVMA): C=CC(=O)Nc1cc(-c2c(-c3cnn(CCN4CCOCC4)c3)[nH]c3ncc(C(=O)OC(C)C)c(C)c23)ccc1C
Result: ≥ 7.30

Request: Provide value of pIC50 for this record tested with HER2 INS YVMA (Homo sapiens, UniProt P04626, INS775YVMA): C=CC(=O)Nc1cc(-c2c(-c3cnn(C)c3)[nH]c3ncc(-c4cnn(CCOC)c4)cc23)ccc1C
Result: 7.00 to 7.30

Request: Provide value of pIC50 for this record tested with HER2 INS YVMA (Homo sapiens, UniProt P04626, INS775YVMA): C=CC(=O)Nc1cc(-c2c(-c3cnn(CCC)c3)[nH]c3ncc(C(=O)OC(C)C)c(C)c23)ccc1C
Result: 6.30 to 7.00

Request: Provide value of pIC50 for this record tested with HER2 INS YVMA (Homo sapiens, UniProt P04626, INS775YVMA): C=CC(=O)Nc1cc(-c2c(-c3cnn(CC(C)O)c3)[nH]c3ncc(C(=O)OC(C)C)c(C)c23)ccc1C (centres unmarked)
Result: 6.30 to 7.00

Request: Provide value of pIC50 for this record tested with HER2 INS YVMA (Homo sapiens, UniProt P04626, INS775YVMA): C=CC(=O)Nc1cc(-c2c(-c3cnn(C)c3)[nH]c3ncc(C(=O)OC(C)C)cc23)ccc1C [Example 1, 2,2,2-trifluoroacetate]
Result: 7.00 to 7.30

Request: Provide value of pIC50 for this record tested with HER2 INS YVMA (Homo sapiens, UniProt P04626, INS775YVMA): C=CC(=O)Nc1cc(-c2c(-c3cnn(CCO)c3)[nH]c3ncc(C(=O)OC(C)C)c(C)c23)ccc1C
Result: 6.30 to 7.00

###

- Tested on: EGFR Exon 20 InsNPH Ba/F3
- Test: CellTiter-Glo cell viability, EGFR Exon 20 InsNPH Ba/F3
- Assay type: cell-based
- Test Conditions: Mus musculus, BaF3, 72 h, read-out: EGFR Exon 20 InsNPH Ba/F3 CTG IC50
pIC50: −log10 of the molar value.
Measure Name: pIC50

- Compound: "C=CC(=O)Nc1cc(-c2c(-c3cnn(C)c3)[nH]c3ncc(OCC)cc23)cc(F)c1C [Example 3, 2,2,2-trifluoroacetate]"
  pIC50: "7.00 to 7.30"
- Compound: "C=CC(=O)Nc1cc(-c2c(-c3cnn(C)c3)[nH]c3ncc(OCC(C)C)cc23)ccc1C [Example 4, 2,2,2-trifluoroacetate]"
  pIC50: "6.30 to 7.00"
- Compound: "C=CC(=O)Nc1cc(-c2c(-c3cnn(C)c3)[nH]c3ncc(-c4ccnn4C)cc23)ccc1C"
  pIC50: "6.30 to 7.00"
- Compound: "C=CC(=O)Nc1cc(-c2c(-c3cnn(C4COC4)c3)[nH]c3ncc(C(=O)OC(C)C)c(C)c23)ccc1C"
  pIC50: "≥ 7.30"

Request: May I ask what pIC50 has been recorded for C=CC(=O)Nc1cc(-c2c(-c3cnn(C)c3)[nH]c3ncc(-c4cnn(CC)c4)cc23)ccc1C ?
Result: ≥ 7.30

Request: May I ask what pIC50 has been recorded for C=CC(=O)Nc1cc(-c2c(-c3cnn(Cc4ccccc4)c3)[nH]c3ncc(C(=O)OC(C)C)c(C)c23)ccc1C ?
Result: 6.30 to 7.00

Request: May I ask what pIC50 has been recorded for C=CC(=O)Nc1cc(-c2c(-c3cnn(CCN(C)C)c3)[nH]c3ncc(C(=O)OC(C)C)c(C)c23)ccc1C ?
Result: 7.00 to 7.30
